TARGET_OF_ASSAY: Voltage-dependent T-type calcium channel subunit alpha-1H (Homo sapiens, UniProt O95180);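 note: channel activity triggered by adding a high calcium stimulation buffer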
Sequence (O95180 whole entry): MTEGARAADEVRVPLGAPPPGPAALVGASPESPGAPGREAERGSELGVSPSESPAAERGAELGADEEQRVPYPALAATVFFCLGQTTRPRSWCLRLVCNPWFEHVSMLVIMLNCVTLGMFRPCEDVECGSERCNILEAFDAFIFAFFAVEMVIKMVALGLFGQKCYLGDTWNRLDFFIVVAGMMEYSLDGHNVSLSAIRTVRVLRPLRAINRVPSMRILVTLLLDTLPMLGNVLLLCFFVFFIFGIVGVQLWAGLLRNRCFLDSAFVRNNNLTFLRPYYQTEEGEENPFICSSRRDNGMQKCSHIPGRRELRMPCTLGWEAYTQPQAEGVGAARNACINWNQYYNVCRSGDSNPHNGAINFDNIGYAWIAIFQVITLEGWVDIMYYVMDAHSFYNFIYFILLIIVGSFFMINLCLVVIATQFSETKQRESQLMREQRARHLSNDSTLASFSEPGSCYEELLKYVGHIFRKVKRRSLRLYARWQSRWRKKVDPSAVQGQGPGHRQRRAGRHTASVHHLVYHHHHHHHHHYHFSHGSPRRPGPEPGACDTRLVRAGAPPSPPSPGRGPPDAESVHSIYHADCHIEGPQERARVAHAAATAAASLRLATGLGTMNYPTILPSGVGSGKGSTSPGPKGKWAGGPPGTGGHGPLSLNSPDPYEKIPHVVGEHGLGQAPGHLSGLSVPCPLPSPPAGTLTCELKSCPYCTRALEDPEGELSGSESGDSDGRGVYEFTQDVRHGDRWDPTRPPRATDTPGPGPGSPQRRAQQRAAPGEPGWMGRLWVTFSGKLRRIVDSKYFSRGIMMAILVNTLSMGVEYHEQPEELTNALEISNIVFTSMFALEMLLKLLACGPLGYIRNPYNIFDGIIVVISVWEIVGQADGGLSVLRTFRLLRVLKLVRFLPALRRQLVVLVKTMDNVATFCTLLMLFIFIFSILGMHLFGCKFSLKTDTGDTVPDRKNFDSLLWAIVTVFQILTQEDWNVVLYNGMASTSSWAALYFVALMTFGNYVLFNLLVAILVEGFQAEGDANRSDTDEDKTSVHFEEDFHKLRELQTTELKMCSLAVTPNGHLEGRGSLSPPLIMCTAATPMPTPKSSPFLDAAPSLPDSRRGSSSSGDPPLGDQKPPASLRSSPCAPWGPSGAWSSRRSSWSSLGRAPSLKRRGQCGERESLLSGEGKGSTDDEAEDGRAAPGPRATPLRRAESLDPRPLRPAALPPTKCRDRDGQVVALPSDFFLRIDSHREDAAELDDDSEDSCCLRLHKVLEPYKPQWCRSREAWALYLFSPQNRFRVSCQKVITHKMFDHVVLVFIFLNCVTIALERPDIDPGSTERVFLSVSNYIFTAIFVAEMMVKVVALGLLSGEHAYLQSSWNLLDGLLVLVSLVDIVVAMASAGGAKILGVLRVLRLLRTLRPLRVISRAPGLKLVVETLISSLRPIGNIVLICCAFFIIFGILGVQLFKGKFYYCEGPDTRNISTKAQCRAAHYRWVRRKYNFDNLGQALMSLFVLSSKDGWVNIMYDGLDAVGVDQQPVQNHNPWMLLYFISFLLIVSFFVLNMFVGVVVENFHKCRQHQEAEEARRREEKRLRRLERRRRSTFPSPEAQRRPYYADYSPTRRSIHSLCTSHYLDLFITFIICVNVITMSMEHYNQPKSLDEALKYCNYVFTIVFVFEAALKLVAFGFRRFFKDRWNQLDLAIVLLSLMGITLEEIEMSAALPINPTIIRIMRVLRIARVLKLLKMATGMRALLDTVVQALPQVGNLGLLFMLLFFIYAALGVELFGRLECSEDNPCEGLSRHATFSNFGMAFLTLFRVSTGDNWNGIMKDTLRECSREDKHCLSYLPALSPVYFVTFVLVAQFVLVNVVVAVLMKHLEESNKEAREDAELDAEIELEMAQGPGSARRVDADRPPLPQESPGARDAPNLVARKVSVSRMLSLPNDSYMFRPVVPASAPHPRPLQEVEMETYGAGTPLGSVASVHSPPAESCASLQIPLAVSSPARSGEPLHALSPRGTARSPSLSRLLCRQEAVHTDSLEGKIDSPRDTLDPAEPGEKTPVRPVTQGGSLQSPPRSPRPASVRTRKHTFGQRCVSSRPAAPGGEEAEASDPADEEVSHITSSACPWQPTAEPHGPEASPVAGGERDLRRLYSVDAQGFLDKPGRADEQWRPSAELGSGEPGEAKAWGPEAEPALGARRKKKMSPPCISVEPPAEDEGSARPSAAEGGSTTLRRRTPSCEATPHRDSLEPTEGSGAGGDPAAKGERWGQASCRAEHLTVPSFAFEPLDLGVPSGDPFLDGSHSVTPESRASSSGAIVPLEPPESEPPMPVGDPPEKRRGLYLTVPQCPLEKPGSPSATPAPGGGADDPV
Type: functional
Active and inactive are the calls of the source.
molecules and their reported EC50

# count of solved cases: 3
COc1ccccc1NC(=O)N1CCc2[nH]c3ccc(F)cc3c2C1 ... 5.47 µM (active)
Cc1ccc(-n2nc3c(c2NC(=O)c2cccs2)CSC3)cc1 ... 0.558 µM (active)
CCn1c(SCc2ccc(C)cc2)nnc1C1CCN(S(=O)(=O)c2ccc(OC)cc2)CC1 ... 6.41 µM (active)

*Q* I would be grateful if you could share the reported EC50 for Oc1ccc(Oc2ccc3c(C(F)(F)F)cc(C(F)(F)F)nc3n2)cc1 .
*A* 3.15 µM (active)

---

Each item that follows carries a reported AC50.
TARGET_OF_ASSAY: UniProt Q06710
Sequence (Q06710 whole entry): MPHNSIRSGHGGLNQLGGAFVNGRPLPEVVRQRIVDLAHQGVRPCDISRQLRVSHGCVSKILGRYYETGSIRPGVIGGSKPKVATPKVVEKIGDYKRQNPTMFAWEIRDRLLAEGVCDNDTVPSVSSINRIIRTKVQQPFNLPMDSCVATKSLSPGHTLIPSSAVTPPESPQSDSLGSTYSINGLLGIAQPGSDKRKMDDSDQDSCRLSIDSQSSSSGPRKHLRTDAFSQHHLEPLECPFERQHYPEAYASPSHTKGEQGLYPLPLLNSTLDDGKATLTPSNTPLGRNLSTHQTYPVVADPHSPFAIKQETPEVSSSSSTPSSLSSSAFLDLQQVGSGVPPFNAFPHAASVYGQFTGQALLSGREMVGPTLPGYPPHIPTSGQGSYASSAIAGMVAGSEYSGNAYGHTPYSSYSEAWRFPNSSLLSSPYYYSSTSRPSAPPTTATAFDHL
METHOD: inhibitors of PAX8-driven TPO luciferase reporter, dose response, RMG-I cells, cherry-pick (AID 687027);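 note: luciferase reporter driven by Pax8 target thyroperoxidase promoter measured by SteadyGlo luminescence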
Assay type: functional, cell-based
Activity calls are given as the source filed them. How the calls were made is not given here.

Please review the entries below; each comes with its answer.
CCN(CC(=O)Nc1c(F)cccc1F)C(=O)c1cc(S(=O)(=O)N(CC)CC)ccc1N1CCCCC1 ... 3.02 µM (active)
C[C@@H]1CCCCO[C@H](CN(C)C(=O)Nc2ccc(C(F)(F)F)cc2)[C@@H](C)CN([C@@H](C)CO)C(=O)c2cc(NC(=O)Nc3ccc(C(F)(F)F)cc3)ccc2O1 ... 2.32 µM (active)
Cc1noc(/C=C/c2ccco2)c1S(=O)(=O)N1CCC(C(=O)NC(C)c2ccccc2)CC1 (stereo not drawn) ... 0.931 µM (active)
CCCC/N=C/[C@]12CCC(O)CC1(O)CCC1[C@@H]2CC[C@]2(C)[C@H](C3C=CC(=O)O3)CCC12O (stereo partly drawn) ... 2.19 µM (active)
C[C@@H]1CN([C@H](C)CO)C(=O)c2cc(NS(=O)(=O)c3ccc(F)cc3)ccc2O[C@@H](C)CCCCO[C@@H]1CN(C)CC1CCCCC1 ... 13 µM (active)

*Q* Look up AC50: O=C(C[C@H]1CC[C@H]2[C@@H](COC[C@@H](O)CN2Cc2ccc3c(c2)OCO3)O1)Nc1ccc(-c2ccccc2)cc1
*A* 5.67 µM (active)

*Q* Which AC50 value belongs to CCCC#Cc1ccc([C@H]2[C@@H](CO)N3CCCCN(S(=O)(=O)Cc4ccccc4)C[C@H]23)cc1 ?
*A* 20.5 µM (active)

*Q* Could you tell me which AC50 is on file for C[C@H](CO)N1C[C@H](C)[C@@H](CN(C)S(=O)(=O)c2ccc(Cl)cc2)OCCCC[C@H](C)Oc2ccc(NS(=O)(=O)c3cccs3)cc2C1=O ?
*A* 4.18 µM (active)

*Q* Which AC50 is reported for this molecule? COc1ccc(-c2cc(C(F)(F)F)nc(S(=O)(=O)CCCC(=O)Nc3cc(C)on3)n2)cc1OC
*A* 9.94 µM (active)

*Q* Quick check: AC50 of O=C(C[C@@H]1CC[C@@H]2[C@H](COC[C@@H](O)CN2S(=O)(=O)c2cccc(Cl)c2)O1)Nc1ccc(-c2ccccc2)cc1 ?
*A* 9.62 µM (active)

*Q* Name the reported AC50 value associated with the molecule C[C@H](CO)N1C[C@H](C)[C@H](CN(C)Cc2ccc3c(c2)OCO3)Oc2ccc(NC(=O)Nc3cccc4ccccc34)cc2C1=O
*A* 26.5 µM (active)

*Q* What does the record list as AC50 for C[C@H]1CCCCO[C@H](CN(C)C(=O)Nc2ccc(C(F)(F)F)cc2)[C@@H](C)CN([C@@H](C)CO)C(=O)c2cc(NC(=O)Nc3ccccc3)ccc2O1 ?
*A* 3.02 µM (active)

*Q* Record request: AC50 value, item C[C@H](CO)N1C[C@H](C)[C@@H](CN(C)C(=O)Cc2ccccc2)OCCCC[C@H](C)Oc2ccc(NC(=O)Nc3ccc(C(F)(F)F)cc3)cc2C1=O
*A* 4.34 µM (active)
